Data provenance is ChEMBL document CHEMBL1140924.

# MEASURED ON: Orexin/Hypocretin receptor type 1 (Homo sapiens)
# Sequence (O43613 whole entry): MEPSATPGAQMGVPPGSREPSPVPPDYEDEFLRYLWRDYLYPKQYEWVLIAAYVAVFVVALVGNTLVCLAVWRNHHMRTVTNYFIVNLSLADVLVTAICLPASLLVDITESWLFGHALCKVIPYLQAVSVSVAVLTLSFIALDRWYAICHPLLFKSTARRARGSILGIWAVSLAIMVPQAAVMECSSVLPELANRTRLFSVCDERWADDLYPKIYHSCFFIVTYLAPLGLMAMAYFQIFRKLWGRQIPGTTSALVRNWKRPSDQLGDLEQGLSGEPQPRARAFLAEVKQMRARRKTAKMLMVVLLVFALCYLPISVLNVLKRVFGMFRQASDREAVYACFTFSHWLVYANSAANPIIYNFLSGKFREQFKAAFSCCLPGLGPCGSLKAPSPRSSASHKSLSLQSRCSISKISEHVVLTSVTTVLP
# ASSAY METHOD TEXT: Antagonist activity at OX1 receptor by FLIPR
# Format: functional
pIC50: −log10 of the molar value.
PROPERTY NAME: pIC50

The examples below pair each entry with its known result.
Lab book: pIC50 of "CCN(Cc1ccn(C)n1)C(=O)CN(c1cc(N(C)C)ccc1Cl)S(=O)(=O)c1ccc(OC)c(OC)c1" noted as 7.92

Lab book: pIC50 of "CCN(Cc1cc(C)n(C)n1)C(=O)CN(c1cc(N(C)C)ccc1Cl)S(=O)(=O)c1ccc(OC)c(OC)c1" noted as 8.22

Lab book: pIC50 of "Cc1cccc(-c2sc(CCCO)nc2C(=O)N2C[C@H]3C[C@H]3[C@H]2CNC(=O)c2c(C)nc3sccn23)c1" noted as 7.72

P. CCc1nc(OC)c2n1CCN([C@@H](C(=O)NC)c1ccccc1)[C@H]2CCc1ccc(C)c(C)c1
Q. CCN(Cc1cccc(C)n1)C(=O)CN(c1cc(N(C)C)ccc1Cl)S(=O)(=O)c1ccc(OC)c(OC)c1
R. CCc1nc(OC)c2n1CCN([C@@H](C(=O)NC)c1ccccc1)[C@H]2CCc1ccc(C)c(F)c1
Sort low-to-high on pIC50, please. Output spec: a listing of the labels in the requested order.
R, Q, P
(R: 7.31, Q: 7.77, P: 8.30)
